- System: formalin-induced mouse paw edema
- Assay details: Antiinflammatory activity assay, mouse paw edema test (formalin)
- Assay type: in vivo, male ddy mice
- Assay setup: Hour 1; 200 mg orally, 1 hour before 0.05 ml of 0.75% formalin into right hind paw
Readout: % Inhibition (%)

Smiles code	Recorded measurement
COC(=O)[C@@]1(C)CC[C@]2(C)CC[C@]3(C)C(=CC(=O)[C@@H]4[C@@]5(C)CC[C@H](OP(=O)(O)OC6=C(O)[C@@H]([C@@H](O)CO)OC6=O)C(C)(C)[C@@H]5CC[C@]43C)[C@@H]2C1	36.36
CCCCCCOC(=O)[C@@]1(C)CC[C@]2(C)CC[C@]3(C)C(=CC(=O)[C@@H]4[C@@]5(C)CC[C@H](OP(=O)(O)OC6=C(O)[C@@H]([C@@H](O)CO)OC6=O)C(C)(C)[C@@H]5CC[C@]43C)[C@@H]2C1	22.50
CC1(C)[C@@H](O)CC[C@]2(C)[C@H]3C(=O)C=C4[C@@H]5C[C@@](C)(C(=O)O)CC[C@]5(C)CC[C@@]4(C)[C@]3(C)CC[C@@H]12	16.28
